- System: SW620 cells
- test.protocol: Ras cellular assay, growth of cells with K-Ras G12V mutation (CellTiter-Glo)
- Format: cell-based
- assay.conditions: Homo sapiens, SW-620; cell growth, Example 9, G12V mutation; read-out: IC50 against SW620 cells
experimental.endpoint: IC50

Sample answers from the record:
{"molecule": "CN1c2nc(OC[C@@]34CCCN3C[C@H](F)C4)nc3c(F)c(-c4ccc(F)c5sc(N)c(C#N)c45)c(Cl)c(c23)OC[C@@H]1CN [Compound 1113]", "assayed.system": "SW620 cells", "IC50": "< 5 µM"}
{"molecule": "N#Cc1c(N)sc2c(F)ccc(-c3c(Cl)c4c5c(nc(OC[C@@]67CCCN6C[C@H](F)C7)nc5c3F)N(CC3CC3C#N)CCO4)c12 (stereo partly drawn) [Compound 962]", "assayed.system": "SW620 cells", "IC50": "< 5 µM"}

Please turn your attention to the following entry.
IC50 in this record for N#Cc1c(N)sc2c(F)ccc(-c3c(Cl)c4c5c(nc(OC[C@@]67CCCN6C[C@H](F)C7)nc5c3F)N(CCC(F)F)[C@@H](C(F)F)CO4)c12 [Compound 1035] : < 5 µM

---

Below, each of the molecules is paired with its reported pIC50 value.
- assayed.system: K-Ras G12S (Homo sapiens, UniProt P01116, G12S)
- Sequence (P01116 1-188 isoform P01116-2 G12S): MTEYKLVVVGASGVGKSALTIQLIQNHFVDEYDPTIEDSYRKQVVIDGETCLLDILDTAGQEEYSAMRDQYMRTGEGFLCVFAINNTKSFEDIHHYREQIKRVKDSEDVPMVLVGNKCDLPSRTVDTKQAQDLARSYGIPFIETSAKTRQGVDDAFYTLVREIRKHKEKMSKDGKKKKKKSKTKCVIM
- test.protocol: HTRF resonance energy transfer assay, K-Ras G12S / SOS1 interaction
- assay.conditions: HTRF assay of Example 5; read-out: IC50 against K-Ras G12S
pIC50: −log10 of the molar value.

{"molecule": "N#Cc1c(N)sc2c(F)ccc(-c3c(Cl)c4c5c(nc(OC[C@@]67CCCN6C[C@H](F)C7)nc5c3F)N(C3CCCOCC3)CCO4)c12 (stereo partly drawn)", "pIC50": "> 7.00"}
{"molecule": "N#Cc1c(N)sc2c(F)ccc(-c3c(Cl)c4c5c(nc(OC[C@@]67CCCN6C[C@H](F)C7)nc5c3F)N(CC(F)F)C(C3CCN3C(=O)C3CN3)CO4)c12 (stereo partly drawn)", "pIC50": "> 7.00"}

In the following, a different molecule is considered.
The molecule listed as C[C@H]1COc2c(Cl)c(-c3ccc(F)c4sc(N)c(C#N)c34)c(F)c3nc(OC[C@@]45CCCN4C[C@H](F)C5)nc(c23)N1C1CCN(C(=O)C2CC2C#N)CC1 (stereo partly drawn) shows pIC50 equal to > 7.00

---

- assayed.system: K-Ras WT (Homo sapiens)
- Sequence (P01116 1-188 isoform P01116-2): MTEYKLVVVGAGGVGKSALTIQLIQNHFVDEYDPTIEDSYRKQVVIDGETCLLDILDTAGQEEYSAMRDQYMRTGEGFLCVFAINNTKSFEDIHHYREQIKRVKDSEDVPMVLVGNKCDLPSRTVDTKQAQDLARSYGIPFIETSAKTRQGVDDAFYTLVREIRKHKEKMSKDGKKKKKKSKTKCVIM
- test.protocol: HTRF resonance energy transfer assay, K-Ras WT / SOS1 interaction
- assay.conditions: HTRF assay of Example 5; read-out: IC50 against K-Ras WT
pIC50: −log10 of the molar value.
experimental.endpoint: pIC50

{"molecule": "N#Cc1c(N)sc2c(F)ccc(-c3c(Cl)c4c5c(nc(OC[C@@]67CCCN6C[C@H](F)C7)nc5c3F)N(C3CCCCN(C(=O)C5CN5)C3)CCO4)c12 (stereo partly drawn)", "assayed.system": "K-Ras WT (Homo sapiens)", "pIC50": "> 7.00"}
{"molecule": "CC(OC(F)F)C12CC(N3CCOc4c(Cl)c(-c5ccc(F)c6sc(N)c(C#N)c56)c(F)c5nc(OC[C@@]67CCCN6C[C@H](F)C7)nc3c45)(C1)C2 (stereo partly drawn)", "assayed.system": "K-Ras WT (Homo sapiens)", "pIC50": "> 7.00"}

# next molecule below
Reported pIC50 of COCCN1c2nc(OC[C@@]34CCCN3C[C@H](F)C4)nc3c(F)c(-c4ccc(F)c5sc(N)c(C#N)c45)c(Cl)c(c23)OC[C@@H]1CNC=O : > 7.00
